Cited source for all entries: ChEMBL document CHEMBL1150313

biological target: Matrix metalloproteinase-9 (Homo sapiens, UniProt P14780); experiment: Inhibition of human recombinant MMP9
Sequence (P14780 whole entry): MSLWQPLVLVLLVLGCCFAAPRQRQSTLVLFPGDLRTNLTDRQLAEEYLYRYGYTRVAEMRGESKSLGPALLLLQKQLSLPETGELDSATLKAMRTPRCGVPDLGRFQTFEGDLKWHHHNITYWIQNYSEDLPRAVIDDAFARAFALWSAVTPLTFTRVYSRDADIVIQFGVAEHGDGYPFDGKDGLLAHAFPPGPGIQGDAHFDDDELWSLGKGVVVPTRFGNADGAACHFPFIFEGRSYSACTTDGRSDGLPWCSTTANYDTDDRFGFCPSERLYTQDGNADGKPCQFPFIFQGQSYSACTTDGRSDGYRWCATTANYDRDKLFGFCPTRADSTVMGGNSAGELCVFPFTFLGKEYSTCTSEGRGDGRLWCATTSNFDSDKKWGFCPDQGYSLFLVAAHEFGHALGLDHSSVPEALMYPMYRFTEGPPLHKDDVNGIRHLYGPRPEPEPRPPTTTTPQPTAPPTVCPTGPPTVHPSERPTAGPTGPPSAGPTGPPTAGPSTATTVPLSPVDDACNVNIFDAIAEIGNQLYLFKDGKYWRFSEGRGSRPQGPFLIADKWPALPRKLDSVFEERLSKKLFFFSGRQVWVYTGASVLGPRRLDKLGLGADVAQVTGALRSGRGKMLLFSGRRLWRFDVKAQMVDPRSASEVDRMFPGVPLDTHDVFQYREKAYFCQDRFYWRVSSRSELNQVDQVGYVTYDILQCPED
Exercise: for every item that follows, state its recorded pKi.
Give bare numbers, as −log10 of the molar value.

Field: example entries. Status: answers known.
O=C(NO)[C@H](CCCNS(=O)(=O)c1ccc(C(F)(F)F)cc1)NS(=O)(=O)c1ccc(C(F)(F)F)cc1 :: 3.48
O=C(NO)C(CNS(=O)(=O)c1ccc(F)cc1)NS(=O)(=O)c1ccc(F)cc1 (stereo not given) :: 5.56
O=C(NO)C(CNS(=O)(=O)c1ccc([N+](=O)[O-])cc1)NS(=O)(=O)c1ccc([N+](=O)[O-])cc1 (stereo not given) :: 5.77
O=C(NO)[C@H](CCCNS(=O)(=O)c1ccc(I)cc1)NS(=O)(=O)c1ccc(I)cc1 :: 3.66

# input for lookup
The measured pKi associated with COc1ccc(S(=O)(=O)NCC(NS(=O)(=O)c2ccc(OC)cc2)C(=O)NO)cc1 (stereo not given) reads 7.41
